Overview of reported pKi across a group of molecules:
# TESTED ON: Delta-type opioid receptor (Rattus norvegicus)
# Sequence (P33533 whole entry): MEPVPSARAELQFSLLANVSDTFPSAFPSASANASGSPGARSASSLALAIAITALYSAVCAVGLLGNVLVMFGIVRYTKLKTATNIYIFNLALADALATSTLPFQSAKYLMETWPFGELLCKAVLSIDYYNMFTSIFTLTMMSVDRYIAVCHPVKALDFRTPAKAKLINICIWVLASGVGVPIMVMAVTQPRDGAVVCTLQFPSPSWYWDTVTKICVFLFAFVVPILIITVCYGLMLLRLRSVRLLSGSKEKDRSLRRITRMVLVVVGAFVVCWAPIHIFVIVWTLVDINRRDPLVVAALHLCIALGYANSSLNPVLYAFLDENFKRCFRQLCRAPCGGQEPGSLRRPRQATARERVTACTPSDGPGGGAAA
# ASSAY TEXT: Displacement of [3H][Ile5,6]deltorphin2 from delta opioid receptor in rat brain membrane homogenate by liquid scintillation counting
Please keep in mind that pKi is minus log10 of the molar concentration; only the number is needed.

Kindly note: Delta-type opioid receptor (Rattus norvegicus), NC(=O)C(Cc1ccc(F)cc1)NC(=O)[C@H](Cc1ccccc1)NC(=O)[C@@H]1CCCC[C@@H]1NC(=O)[C@@H](N)Cc1ccc(O)cc1 (some centres undefined) , pKi value reported: 6.16

Measured pKi (Delta-type opioid receptor (Rattus norvegicus)), entry C[C@@H](c1ccccc1)[C@H](NC(=O)[C@H](Cc1ccccc1)NC(=O)[C@H]1CCCC[C@H]1NC(=O)[C@@H](N)Cc1ccc(O)cc1)C(N)=O : 6.18

Noted pKi for C[C@@H](c1ccccc1)[C@H](NC(=O)[C@H](Cc1c[nH]c2ccccc12)NC(=O)[C@H]1CCCC[C@H]1NC(=O)[C@@H](N)Cc1ccc(O)cc1)C(N)=O , tested on Delta-type opioid receptor (Rattus norvegicus): 5.84

Delta-type opioid receptor (Rattus norvegicus) pKi of C[C@H](c1ccccc1)[C@@H](NC(=O)[C@H](Cc1ccccc1)NC(=O)[C@H]1CCCC[C@H]1NC(=O)[C@@H](N)Cc1ccc(O)cc1)C(N)=O is 5.90
